Target: human platelet phospholipase A2 (Homo sapiens, UniProt P14555)
Construct: a preparation of human platelet phospholipase A2; from tissue; host or cells: human platelets
Sequence (P14555 21-144): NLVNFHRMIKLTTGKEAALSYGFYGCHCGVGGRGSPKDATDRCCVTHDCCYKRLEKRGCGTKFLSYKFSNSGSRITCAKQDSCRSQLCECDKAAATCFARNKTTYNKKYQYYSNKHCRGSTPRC
Assay: Inhibition of human platelet phospholipase A2 (14C-oleate E. coli substrate)
Type: biochemical
Conditions: read-out: Inhibition of PLA2, % Inhibition @ 50 μM
Assign class by inhibition at 50 µM: not lower than 90% means true; lower than 90% means false.

Illustrative cases are given below, each with its answer.
# compound, assignedLabel
records = [
    ("CC1=C(CCC(C)Oc2ccc(C3=CC(=O)OC3O)cc2)C(C)(C)CCC1 (centres unmarked)", "true"),
    ("C=CC(CCCCC)Oc1ccc(C2=CC(=O)OC2O)cc1 (centres unmarked)", "true"),
    ("CCCCCCCCSc1ccc(C2=CC(=O)OC2O)cc1 (centres unmarked)", "true"),
]

Query: Is it the case that CC1=C(CC/C=C(\C)COc2ccc(C3=CC(=O)OC3O)cc2)C(C)(C)CCC1 (centres unmarked) has inhibition at 50 µM reaching or exceeding 90%?
Reply: true

Query: Entry CCCCCCC#Cc1ccc(C2=CC(=O)OC2O)cc1 (centres unmarked) : is its inhibition at 50 µM no less than 90%?
Reply: true

Query: Threshold query (inhibition at 50 µM >= 90%) on CCCCCCCCOc1ccc(SC2=CC(=O)OC2O)cc1 (centres unmarked)
Reply: true

Query: Entry O=C1C=C(c2ccc(Cc3ccccc3)cc2)C(O)O1 (centres unmarked) : is its inhibition at 50 µM no less than 90%?
Reply: false

Query: API: above_or_equal(metric=inhibition at 50 µM, cutoff=90%) for item CC(C)(C)C#Cc1ccc(C2=CC(=O)OC2O)cc1 (centres unmarked)
Reply: false
